Molecular target: human carbonic anhydrase I (hCA I) (Homo sapiens, UniProt P00915)
Construct: from tissue
Sequence (P00915 whole entry): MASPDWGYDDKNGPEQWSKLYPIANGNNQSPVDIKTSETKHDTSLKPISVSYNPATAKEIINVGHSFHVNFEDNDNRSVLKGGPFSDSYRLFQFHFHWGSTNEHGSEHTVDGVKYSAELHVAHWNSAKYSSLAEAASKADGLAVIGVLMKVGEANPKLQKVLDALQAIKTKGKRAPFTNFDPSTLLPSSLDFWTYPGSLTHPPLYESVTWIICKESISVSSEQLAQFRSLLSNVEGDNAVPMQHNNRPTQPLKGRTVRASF
Experiment: Esterase activity assay (4-nitrophenyl-acetate), hCA I
Format: biochemical
Settings: esterase method, 4-nitrophenyl-acetate, 348 nm, 25 °C; read-out: IC50 (esterase) hCA I
Counter-ions that a name gives are not always drawn.
property-measured: pIC50
Bear in mind: pIC50 is minus log10 of a mol/L concentration; give just that figure.

Could you tell me which pIC50 is on file for CCCCCCOC(=O)NC(=N)c1ccc(NCc2nc3cc(C(=O)N(CCC(=O)OCC)c4ccccn4)ccc3n2C)cc1 [Dabigatran etexilate] ?
4.82

How about this compound: COc1ccc([C@@H]2Sc3ccccc3N(CCN(C)C)C(=O)[C@@H]2OC(C)=O)cc1
3.63

COc1ccc(-n2nc(C(N)=O)c3c2C(=O)N(c2ccc(N4CCCCC4=O)cc2)CC3)cc1 ?
3.42

And the next one, CCCCC1=NC2(CCCC2)C(=O)N1Cc1ccc(-c2ccccc2-c2nnn[nH]2)cc1 ?
3.46

Also, COc1cc2c(cc1OC)CC(=O)N(CCCN(C)C[C@H]1Cc3cc(OC)c(OC)cc31)CC2 please.
3.97

Now try CC(=O)Oc1cc2c(s1)CCN(C(C(=O)C1CC1)c1ccccc1F)C2 (centres unmarked) .
3.48

Now the compound C[C@H](CS)C(=O)N1CCC[C@H]1C(=O)O
5.80

For OC(CNCC(O)C1CCc2cc(F)ccc2O1)C1CCc2cc(F)ccc2O1 (centres unmarked) [Nebivolol hydrochloride] then?
3.39

====

Target: human carbonic anhydrase II (hCA II) (Homo sapiens, UniProt P00918)
Construct: from tissue
Assay: Esterase activity assay (4-nitrophenyl-acetate), hCA II
Assay type: biochemical
Conditions: esterase method, 4-nitrophenyl-acetate, 348 nm, 25 °C; read-out: IC50 (esterase) hCA II
Where a name gives a salt, the structure may show the parent alone.
Assign pIC50 to each entry below.
// pIC50 here means minus log10 of the molar concentration (mol/L)

Please give the measured pIC50 for this molecule: COC(=O)[C@H](c1ccccc1Cl)N1CCc2sccc2C1 [Clopidogrel]
3.99

# iterate: CC(C)NCC(O)COc1ccc(COCCOC(C)C)cc1 (stereo not drawn) [Bisoprolol hemifumarate]
3.61

C[C@H](CS)C(=O)N1CCC[C@H]1C(=O)O [Captopril] ?
5.20

Same for C[C@H]1O[C@@H](O[C@H]2[C@@H](O)C[C@H](O[C@H]3[C@@H](O)C[C@H](O[C@H]4CC[C@@]5(C)[C@H](CC[C@@H]6[C@@H]5C[C@@H](O)[C@]5(C)[C@@H](C7=CC(=O)OC7)CC[C@]65O)C4)O[C@@H]3C)O[C@@H]2C)C[C@H](O)[C@@H]1O [Digoxin]
4.48

Repeat with CN1CCc2nc(C(=O)N[C@@H]3C[C@@H](C(=O)N(C)C)CC[C@@H]3NC(=O)C(=O)Nc3ccc(Cl)cn3)sc2C1 [Edoxaban]
4.47

Now consider CCOC(=O)[C@H](CCc1ccccc1)N[C@@H](C)C(=O)N1[C@H](C(=O)O)C[C@@H]2CCC[C@@H]21 [Ramipril] .
4.42

Try the molecule CC(C)c1c(C(=O)Nc2ccccc2)c(-c2ccccc2)c(-c2ccc(F)cc2)n1CC[C@@H](O)C[C@@H](O)CC(=O)O [Atorvastatin]
5.01

Another: CCCCc1oc2ccccc2c1C(=O)c1cc(I)c(OCCN(CC)CC)c(I)c1 [Amiodorane hydrochloride]
4.91

Would you kindly repeat that for CCOc1nc2cccc(C(=O)OC(C)OC(=O)OC3CCCCC3)c2n1Cc1ccc(-c2ccccc2-c2nnn[nH]2)cc1 (stereo not drawn) [Candesartan cilexetil] ?
3.75

Moving on to OC(CNCC(O)C1CCc2cc(F)ccc2O1)C1CCc2cc(F)ccc2O1 (stereo not drawn) [Nebivolol hydrochloride]
3.39

Cool, now CC(=O)Oc1cc2c(s1)CCN(C(C(=O)C1CC1)c1ccccc1F)C2 (stereo not drawn) [Prasugrel]
3.37

Now give it for COc1ccc([C@@H]2Sc3ccccc3N(CCN(C)C)C(=O)[C@@H]2OC(C)=O)cc1 [Diltiazem] too.
3.49

Okay, and CCOC(=O)C1=C(C)NC(C)=C(C(=O)OCC)C1c1ccccc1/C=C/C(=O)OC(C)(C)C [Lacidipine] ?
3.81

Param item: COc1ccc(-n2nc(C(N)=O)c3c2C(=O)N(c2ccc(N4CCCCC4=O)cc2)CC3)cc1 [Apixaban]
3.41

Quick one: CCOC(=O)C1=C(COCCN)NC(C)=C(C(=O)OC)C1c1ccccc1Cl (stereo not drawn) [Amlodipine]
4.41

Then this molecule: COc1ccccc1OCC(O)CN1CCN(CC(=O)Nc2c(C)cccc2C)CC1 (stereo not drawn) [Ranolazine]
3.19

Now consider COc1ccc(CN2CCNCC2)c(OC)c1OC [Trimetazidine dihydrochloride] .
3.95

Check COc1cc2c(cc1OC)CC(=O)N(CCCN(C)C[C@H]1Cc3cc(OC)c(OC)cc31)CC2 [Ivabradine] too.
3.93

Entry CCCCC1=NC2(CCCC2)C(=O)N1Cc1ccc(-c2ccccc2-c2nnn[nH]2)cc1 [Irbesartan] please
3.47

Request: COc1ccccc1OCCNCC(O)COc1cccc2[nH]c3ccccc3c12 (stereo not drawn) [Carvedilol]
4.33

# iterate: COC(=O)C1=C(C)NC(C)=C(C(=O)OC(C)(C)CN(C)CCC(c2ccccc2)c2ccccc2)C1c1cccc([N+](=O)[O-])c1 (stereo not drawn) [Lercanidipine hydrochloride]
3.37

Record: O=C(NC[C@H]1CN(c2ccc(N3CCOCC3=O)cc2)C(=O)O1)c1ccc(Cl)s1 [Rivaroxaban]
3.61

Moving on to COc1cc2nc(N3CCN(C(=O)C4COc5ccccc5O4)CC3)nc(N)c2cc1OC (stereo not drawn) [Doxazosin mesylate]
3.38

Here is the next molecule: COCCc1ccc(OCC(O)CNC(C)C)cc1 (stereo not drawn) [Metoprolol succinate]
3.48

Would you mind doing CCCNCC(O)COc1ccccc1C(=O)CCc1ccccc1 (stereo not drawn) [Propafenone] as well?
5.52

Then CCCSc1nc(N[C@@H]2C[C@H]2c2ccc(F)c(F)c2)c2nnn([C@@H]3C[C@H](OCCO)[C@@H](O)[C@H]3O)c2n1 [Ticagrelor] ?
4.28

Would you mind doing CCCCCCOC(=O)NC(=N)c1ccc(NCc2nc3cc(C(=O)N(CCC(=O)OCC)c4ccccn4)ccc3n2C)cc1 [Dabigatran etexilate] as well?
4.82
